These data points were gathered from PubChem BioAssay.

assay: small-molecule binders of probe aLefty1, primary screen, biochemical, small-molecule microarray, 635/667 nm fluorescence (AID 1153); conditions: higher = more signal;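 further: score merges spot fluorescence with signal-to-noise ratio from the scanned slide images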
Listed here are compounds together with their documented composite z-score.
API doc: respond with a numeric literal and nothing else, no unit.

Past entries and their recorded results:
{"given.smiles": "COc1cccc([C@H]2Oc3ccc(OC)cc3C(=NO[C@@H]3O[C@H](COC(C)=O)[C@@H](OC(C)=O)[C@H](OC(C)=O)[C@H]3OC(C)=O)[C@@H]2O)c1", "composite z-score": -0.191}
{"given.smiles": "CSCC[C@@H]1NC(=O)CC=C[C@@H](C)COC(=O)[C@@H](C)COC1=O", "composite z-score": -0.283}
{"given.smiles": "O=C1[C@H]2[C@H]3[C@H](O)[C@H](O)CC(=NOC[C@@H](O)COCc4ccco4)[C@H]3CC[C@H]2C(=O)N1Cc1ccccc1", "composite z-score": -0.154}

Which composite z-score is reported for this compound? COc1ccc(O[C@@H]2[C@H](O)CO[C@@H]2C=Cc2ccccc2)cc1
0.417

Which composite z-score is reported for this compound? CO[C@@H]1C=CCC(=O)N[C@@H](C)C(=O)OC[C@@H](OC)[C@H](C)CCCC(=O)OC[C@H]1C
0.0816

Which composite z-score is reported for this compound? COc1ccc(O[C@@H]2[C@H](O)CO[C@H]2C=Cc2ccccc2)cc1
-0.237

###

molecular target: Torsin-1A-interacting protein 1 (Homo sapiens); assay: LAP1 binders from COS7 cell lysate, primary screen, small-molecule microarray, 635/667 nm fluorescence (AID 1116); conditions: COS7-hLAP1 lysate binding, 635 nm fluorescence, higher = more signal
Listed here are molecules together with their documented composite z-score.
API doc: respond with a numeric literal and nothing else, no unit.

Past entries and their recorded results:
{"molecule": "CON=Cc1ccc(C(=O)N2[C@H](c3ccc(C)cc3)[C@@H](C)CC[C@H]2C(=O)OC)cc1", "experimental.system": "Torsin-1A-interacting protein 1 (Homo sapiens)", "composite z-score": -0.0018}
{"molecule": "CCOC(=O)[C@H](CC(C)C)NC(=O)CCC1CC(OC(=O)NCc2cccc3ccccc23)CC2(CCCC(COC(=O)NCCc3ccc(Cl)cc3)O2)O1 (some centres undefined)", "experimental.system": "Torsin-1A-interacting protein 1 (Homo sapiens)", "composite z-score": 0.161}
{"molecule": "CCOC(=O)[C@H](CC(C)C)NC(=O)CCC1CC(OC(=O)NCc2cccc3ccccc23)CC2(CCCC(COC(=O)NCCC(C)C)O2)O1 (some centres undefined)", "experimental.system": "Torsin-1A-interacting protein 1 (Homo sapiens)", "composite z-score": 0.165}

Turning now to a further molecule:
Which composite z-score is reported for this molecule? COC(=O)[C@H](C)NC(=O)CCC1CC(OC(=O)NCc2ccc3c(c2)OCO3)CC2(CCCC(COC(=O)NCC3CCCCC3)O2)O1 (some centres undefined)
0.173

###

assay: small-molecule binders of probe aInhba, primary screen, biochemical, small-molecule microarray, 635/667 nm fluorescence (AID 1148); settings: higher = more signal;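 further: score merges 667nm spot fluorescence with signal-to-noise for antibody binding to printed compounds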
Listed here are compounds together with their documented composite z-score.

Past entries and their recorded results:
{"compound": "C#CCCCON=C1C[C@@H](O)[C@@H](O)[C@@H]2[C@@H]3C(=O)N(CCC(=O)OCC)C(=O)[C@@H]3CC[C@H]12", "composite z-score": -0.0736}
{"compound": "COc1ccc(COC(=O)NN=C2C[C@@H](O)[C@@H](O)[C@@H]3[C@@H]4C(=O)N(c5ccc(F)cc5F)C(=O)[C@@H]4CC[C@H]23)cc1", "composite z-score": -0.0719}
{"compound": "C#CCCCON=C1C[C@@H](O)[C@@H](O)[C@@H]2[C@@H]3C(=O)N(CC)C(=O)[C@@H]3CC[C@@H]12", "composite z-score": -0.181}
{"compound": "COC(=O)[C@@H]1CC[C@H](C)[C@@H](c2ccc(C)cc2)N1C(=O)c1ccc(C=NO[C@@H](C)c2cn([C@H](CO)Cc3ccccc3)nn2)cc1", "composite z-score": -0.024}
{"compound": "O=C(NN=C1C[C@@H](O)[C@@H](O)[C@@H]2[C@@H]3C(=O)N(C4CCCCC4)C(=O)[C@@H]3CC[C@@H]12)OCc1ccccc1", "composite z-score": -0.384}
{"compound": "C[C@@H](c1ccccc1)N1C(=O)[C@H]2[C@H]3[C@H](O)[C@H](O)CC(=O)[C@H]3CC[C@H]2C1=O", "composite z-score": -0.145}
{"compound": "CCOC(=O)NN=C1C[C@@H](O)[C@@H](O)[C@@H]2[C@@H]3C(=O)N(Cc4ccc5c(c4)OCO5)C(=O)[C@@H]3CC[C@H]12", "composite z-score": -0.128}
{"compound": "O=C(NN=C1C[C@@H](O)[C@@H](O)[C@@H]2[C@@H]3C(=O)N(C[C@@H]4CCCO4)C(=O)[C@@H]3CC[C@H]12)OCc1ccccc1", "composite z-score": -0.341}
{"compound": "CON=CC[C@@H]1C=C[C@H](OC(C)=O)[C@@H](COC(C)=O)O1", "composite z-score": 0.102}
{"compound": "O=C1[C@H]2[C@H]3[C@H](O)[C@H](O)CC(=NOCc4ccccc4)[C@@H]3CC[C@H]2C(=O)N1c1ccc(F)cc1F", "composite z-score": -0.104}

Which composite z-score is reported for this compound? COc1ccc(O[C@H]2C=C[C@@H](c3ccccc3)O[C@@H]2COC(=O)CCC(C)=NOC(C)CN2CCCc3nc(C)c(C)cc32)cc1 (stereo not given in full)
-0.12

###

Listed here are compounds together with their documented z-score.
assay: A549 lung cancer cell viability effects, profiling panel, resazurin fluorescence, 24 h, PK04 Diversity Set (AID 1171); details: higher = more signal, called active from +8 up or from −8 down; further: test concentration not given here
API doc: respond with a numeric literal and nothing else, no unit.

Past entries and their recorded results:
{"compound": "CCO[C@H](c1cc(OC)cc([N+](=O)[O-])c1OC)[C@H](C)C=CCC(=O)OC", "z-score": -0.625}
{"compound": "Cc1ccc(S(=O)(=O)NC(CCc2ccccc2)CC(=O)C(C)(C)C)cc1 (stereo unspecified)", "z-score": 1.34}
{"compound": "CO[C@@H]1COC(=O)CC=C[C@@H](C)[C@@H]2C=C[C@H](O)[C@@H](COC(=O)CC=C[C@H]1C)O2", "z-score": 0.0324}
{"compound": "CC(C)(C)N1C(=O)[C@H]2[C@H]3[C@H](O)C=CC(=O)[C@@H]3CC[C@H]2C1=O", "z-score": 0.0796}
{"compound": "CCOC(=O)[C@H](CC(C)C)NC(=O)CCC1CC(OC(=O)NCCc2ccc(F)cc2)CC2(CCCC(COC(=O)NCCc3ccc(Cl)cc3)O2)O1 (stereo partly specified)", "z-score": 0.608}

Which z-score is reported for this compound? COc1ccc(O[C@H]2C=C[C@@H](c3ccccc3)O[C@@H]2CON=C(C)CCN2CCc3nc(-c4ccccc4)c(-c4ccccc4)cc3C2)cc1
0.621

Which z-score is reported for this compound? C[C@H]1COC(=O)[C@@H]2CCCN2C(=O)[C@@H](C)COC(=O)[C@H](Cc2ccccc2)NC1=O
0.264

Which z-score is reported for this compound? CC(C)=NOC[C@@H](C)[C@H](OCc1ccccc1)C(C)C
-0.557

###

assay: HepG2 liver cancer cell viability effects, profiling panel, resazurin fluorescence, 24 h, PK04 Diversity Set (AID 1172); conditions: higher = more signal; further: test concentration not given here
quantity.kind: z-score

{"compound": "Cc1ccc(S(=O)(=O)OC[C@H]2CN3[C@H](c4ccc(Br)cc4)[C@@H](C)CC[C@H]3C(=O)O2)cc1", "experimental.value": 0.794}
{"compound": "COC(=O)[C@@H]1CC[C@H](C)[C@@H](c2ccc(C)cc2)N1C(=O)c1ccc(C=NO[C@@H](C)c2cn([C@H](CO)Cc3ccccc3)nn2)cc1", "experimental.value": -1.27}
{"compound": "COC(=O)[C@@H]1CC[C@H](C)[C@@H](c2ccc(C)cc2)N1C(=O)c1ccc(C=NOCC[C@@H]2C=C[C@H](OC(C)=O)[C@@H](COC(C)=O)O2)cc1", "experimental.value": -0.574}
{"compound": "O=c1n(Cc2cc3c(cc2Cl)OCO3)c(=O)n2n1CC[C@@H]1C(=NOCc3ccccc3)[C@H]3O[C@H]3[C@@H](O)[C@@H]12", "experimental.value": -0.0806}
{"compound": "CCOC(=O)[C@H](CC(C)C)NC(=O)CCC1CC(OC(=O)NCCc2ccc(F)cc2)CC2(CCCC(COC(=O)NCCOc3ccccc3)O2)O1 (stereo partly drawn)", "experimental.value": -0.972}

Which z-score is reported for this compound? C[C@H]1Cc2c(COc3ccccc3)nc3c(c2CO1)CN(CCOc1ccccc1)CC3
-0.503

Which z-score is reported for this compound? CCOC(=O)CCN1C(=O)[C@H]2[C@H]3[C@H](O)[C@H](O)CC(=NOCc4ccccc4)[C@H]3CC[C@H]2C1=O
-0.436

Which z-score is reported for this compound? C[n+]1ccc(-c2ccc(CO)cc2)cc1
-0.557
